- assay.remarks: Human HepG2 cell viability assay in 384 well format
- Assay type: toxicity, cell-based
- Design: dose 125 nL, time 70.5 hour; concentration not given beside the values
- assay.setup: HepG2 cells, read-out: Inhibition
Attribute: cytotoxicity at 70.5 h
property.measured: cytotoxicity at 70.5 h (%)

# compound, scale.unit, measured.number
measured = [
    ("CN(Cc1nc2ccccc2s1)C1CCCN(c2cccnn2)C1 (stereo unspecified)", "%", -11),
    ("Cn1ncc2c1C(COCC1CC1)CN(C(=O)c1cscn1)C2 (stereo unspecified)", "%", -7.06),
    ("Cc1nn(C)cc1S(=O)(=O)N[C@@H]1CC[C@@H](n2ccnc2C)[C@@H]1O", "%", 17.7),
    ("COc1ccc(OCC(=O)NC(C)c2ccccc2)c(C(=O)O)c1 (stereo unspecified)", "%", -7.12),
    ("CC(C)NC(=O)[C@@]12CCO[C@@H]1CCN(Cc1ccc3c(c1)OCO3)C2", "%", 1.85),
    ("Cc1cc(C)n(CC(C)NCc2cnc3c(C)cccn23)n1 (stereo unspecified)", "%", -2.32),
    ("COCCO[C@H]1CCN(Cc2ccsc2)[C@H]1Cc1cccnc1", "%", 24.4),
    ("CN(Cc1ccccc1)CC1CC2(CO1)CN(Cc1cnn(C)c1)C2 (stereo unspecified)", "%", -6.11),
    ("Cc1nc(COC[C@@]23CCC[C@@H]2CN(Cc2cnn(C)c2)C3)cs1", "%", -5),
    ("c1ccc(-n2ccc(CN3CCCC3Cn3cccn3)n2)cc1 (stereo unspecified)", "%", -13.6),
    ("CCCOc1cccc(-c2nc3c([nH]2)CCNC3)c1", "%", 5.31),
]

---

- assay.remarks: Human HepG2 cell viability assay in 384 well format
- Format: toxicity, cell-based
- Parameters: dose 125 nL, time 70.5 hour; concentration not given beside the values
- assay.setup: HepG2 cells, read-out: Inhibition
Attribute: cytotoxicity at 70.5 h
property.measured: cytotoxicity at 70.5 h (%)

# compound, property.measured, measured.number
measured = [
    ("c1ccc(-c2nc(CN3CCCC3Cn3cncn3)no2)cc1 (stereo unspecified)", "cytotoxicity at 70.5 h", -13.3),
    ("CC(c1ccncc1)N(CCN(C)C)C(=O)Nc1ccc(Cl)cc1 (stereo unspecified)", "cytotoxicity at 70.5 h", -14.7),
    ("NC(=O)c1cc(C2CCCN(CCOCC(F)(F)F)C2)n[nH]1 (stereo unspecified)", "cytotoxicity at 70.5 h", 34.2),
    ("Cc1cc(C)c(NC(=O)Nc2cnn(CC(O)CN(C)C)c2)c(C)c1 (stereo unspecified)", "cytotoxicity at 70.5 h", -13.2),
    ("Cn1cccc1C(=O)N1CCC2(CCN2c2ncccn2)C1 (stereo unspecified)", "cytotoxicity at 70.5 h", -3.82),
    ("CC1(C)OCC2(CO1)CN(C(=O)c1ccccc1Br)C2", "cytotoxicity at 70.5 h", -4.2),
    ("O=C(CCC1CCCC1)N1CCCC(c2ncc3c(n2)CCNC3)C1 (stereo unspecified)", "cytotoxicity at 70.5 h", -1.37),
    ("C[C@H](NC(=O)Cc1csc(-c2cccc(Cl)c2)n1)C(=O)O", "cytotoxicity at 70.5 h", 19.3),
    ("Cc1nc(-c2cc(C(=O)NCCN3CCOCC3)c3ccccn23)cs1", "cytotoxicity at 70.5 h", -131),
    ("CCCc1cc(=O)[nH]c(-c2ccccc2CN(C)CCC(C)C)n1", "cytotoxicity at 70.5 h", 18.2),
    ("Cc1nc(C)n(CC2CCCN2Cc2ncc(C(C)(C)C)o2)n1 (stereo unspecified)", "cytotoxicity at 70.5 h", -4.1),
]
